src = paper PMC4822050

Exercise: state measured ΔH for each of the molecules provided.
Molecular target: T1, TTD (residues 134–285) of UHRF1 (Homo sapiens, UniProt Q96T88)
T1 construct: TTD (residues 134–285); GST (N, cleaved yes); made in house; host or cells: E. coli BL21 (DE3)
T1 sequence (Q96T88 134-285): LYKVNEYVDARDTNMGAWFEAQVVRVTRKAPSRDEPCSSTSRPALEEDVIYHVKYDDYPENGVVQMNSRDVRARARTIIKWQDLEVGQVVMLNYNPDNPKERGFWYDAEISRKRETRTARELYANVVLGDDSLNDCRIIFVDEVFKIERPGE
Experiment: ITC, TTD titrated into Spacer variants and other UHRF1 fragments
Type: binding
Conditions: ITC, TTD in syringe

Ask: // returns reported ΔH for input Spacer: C-terminal spacer region of human UHRF1 (residues 587–674) (protein, left off: GST, end not stated, cleaved) PGPWTKEGKDRIKKLGLTMQYPEGYLEALANREREKENSKREEEEQQEGGFASPRTGKGKWKRKSAGGGPSRAGSPRRTSKKTKVEPY
Reply: -1.13 E4±116.7 cal/mol

Ask: Okay, and SpacerK648D: mutation K648D of the Spacer (protein, left off: GST, end not stated, cleaved, mutation K648D of the Spacer) PGPWTKEGKDRIKKLGLTMQYPEGYLEALANREREKENSKREEEEQQEGGFASPRTGKGKWDRKSAGGGPSRAGSPRRTSKKTKVEPY ?
Reply: -8.45 ± 0.3659 kcal/mol

Ask: Another molecule to check: SpacerR649A: mutation R649A of the Spacer (protein, left off: GST, end not stated, cleaved, mutation R649A of the Spacer) PGPWTKEGKDRIKKLGLTMQYPEGYLEALANREREKENSKREEEEQQEGGFASPRTGKGKWKAKSAGGGPSRAGSPRRTSKKTKVEPY
Reply: -8.277 ± 0.352 kcal/mol
